The reported measurements were obtained from PubChem BioAssay (NCI).

- Tested on: U251 CNS
- assay-explanation: NCI tumour cell line growth inhibition, 48 h
recorded-endpoint: log10(TGI) (log10 of the value in µM)
All values: base-10 log of TGI in µM.

Assay U251 CNS, sample N#Cc1ccccc1C#C/C=C\C#Cc1ccccn1 , log10(TGI) read: 1.58

Assay U251 CNS, sample CCCCCCCN(CCCCCCC)C(=N)c1ccc(OC)c2ccccc12 , log10(TGI) read: 0.45

Assay U251 CNS, sample O=C1/C(=C/Cc2ccco2)N=C(c2ccccc2)N1c1nc2ccc(Sc3ccccc3)cc2[nH]1 , log10(TGI) read: 1.64

Assay U251 CNS, sample C[C@H]1O[C@@H](O[C@H]2[C@@H](O)C[C@H](O[C@H]3[C@@H](O)C[C@H](O[C@H]4CC[C@]5(C)C6CC[C@]7(C)[C@@H](C8=CC(=O)OC8)CC[C@]7(O)C6CC[C@@H]5C4)O[C@@H]3C)O[C@@H]2C)C[C@H](O)[C@@H]1O (some centres undefined) , log10(TGI) read: -1.17

Assay U251 CNS, sample c1ccc2cc(Cn3c(-c4cccc5ccccc45)[n+](Cc4ccc5ccccc5c4)c4c5ccccc5c5ccccc5c43)ccc2c1 , log10(TGI) read: 0.15
